system: α7 integrin promoter; assay: muscle cell-based assay: α7βgal+/− myoblasts/myotubes, LacZ reporter, β-galactosidase cleavage of FDG; set-up: species or system mouse; settings: Myotubes; compound at 5 uM
assay.metric: Results in a α7+/− β-galactosidase assay, Myotubes, 5 uM

Illustrative cases are given below, each with its answer.
CCNC(=O)C(=O)Nc1cc2c3c(c1)CCN3C(=O)CC2 [drawing 482] = 0.4036
CC(C)Oc1ccc(C(=O)/C=C2\C(=O)Nc3ccccc32)cc1 [drawing 323] = −0.09555
COc1ccc(CN2CCNC(=O)C2CC(=O)NCCc2c[nH]c3ccccc23)c(OC)c1 (stereo not shown) [drawing 484] = 0.1466
Cc1ccc(N2C(=O)C3NN=C(C(=O)OCc4ccccc4)C3C2=O)cc1 (stereo not shown) [drawing 392] = −0.168

Ask: Quick check: Results in a α7+/− β-galactosidase assay, Myotubes, 5 uM of Cc1ccc2c(c1)/C(=C/c1ccccc1)C(=O)N2 [drawing 457] ?
Result: −0.09703

Ask: Quick check: Results in a α7+/− β-galactosidase assay, Myotubes, 5 uM of N#C/C(=C1/C(=O)Nc2ccc(Br)cc21)c1ccccn1 [drawing 359] ?
Result: −0.1525

Ask: Quick check: Results in a α7+/− β-galactosidase assay, Myotubes, 5 uM of CC1CC(C)(C)N=C(S)N1CC(=O)N(C)Cc1ccccc1 (stereo not shown) [drawing 385] ?
Result: −0.03109

Ask: Quick check: Results in a α7+/− β-galactosidase assay, Myotubes, 5 uM of O=C1CCC(C(=O)N2CCSCC2)CN1Cc1ccc(Cl)cc1 (stereo not shown) [drawing 489] ?
Result: 0.02663

Ask: Quick check: Results in a α7+/− β-galactosidase assay, Myotubes, 5 uM of N#Cc1nc(COc2ccccc2)oc1N1CCCC1 [drawing 466] ?
Result: −0.3897

Ask: Quick check: Results in a α7+/− β-galactosidase assay, Myotubes, 5 uM of Cc1ccccc1NC(=O)c1ccc2c(O)c(Sc3ccccc3)c(=O)[nH]c2c1 [drawing 426] ?
Result: −0.09733

Ask: Quick check: Results in a α7+/− β-galactosidase assay, Myotubes, 5 uM of O=C(NCc1ccccc1)c1csc(-c2cccnc2)n1 [drawing 452] ?
Result: 0.1395

Ask: Quick check: Results in a α7+/− β-galactosidase assay, Myotubes, 5 uM of CC(C)(C)c1csc(NC(=O)c2cccnc2)n1 [drawing 455] ?
Result: 0.01472

Ask: Quick check: Results in a α7+/− β-galactosidase assay, Myotubes, 5 uM of C/C(=N\NC(=O)c1cc(C)oc1C)c1ccc2ccccc2c1 [drawing 444] ?
Result: 0.2514

Ask: Quick check: Results in a α7+/− β-galactosidase assay, Myotubes, 5 uM of COc1ccc(CNC(=O)C2CCCN(S(=O)(=O)c3c(C)noc3/C=C/N(C)C)C2)cc1 (stereo not shown) [drawing 371] ?
Result: −0.1068

Ask: Quick check: Results in a α7+/− β-galactosidase assay, Myotubes, 5 uM of COc1ccc(C(=O)Cn2nnc(-c3ccccc3NC(=O)c3ccco3)n2)cc1 [drawing 465] ?
Result: −0.1502

Ask: Quick check: Results in a α7+/− β-galactosidase assay, Myotubes, 5 uM of CC(C(=O)Nc1ccc(C#N)cc1)N(C)CC(=O)Nc1cccc(F)c1 (stereo not shown) [drawing 421] ?
Result: −0.1345

---

System: α7 integrin promoter
Assay: muscle cell-based assay: α7βgal+/− myoblasts/myotubes, LacZ reporter, β-galactosidase cleavage of FDG
Parameters: species or system mouse
Settings: Myotubes; compound at 1 uM
Method: An α7 integrin null mouse was produced in which exon 1 of the gene encoding the α7 integrin was replaced by the LacZ reporter. […] A primary myoblast cell line (designated α7βgal^+/−) isolated from 10 day old α7^+/− pups were analyzed for the ability of β-galactosidase to report α7 integrin expression. α7βgal^+/− myoblasts were differentiated and subjected to X-gal staining and western analysis (FIGS. 1A and 1B). […]
Output MET for records whose Results in a α7+/− β-galactosidase assay, Myotubes, 1 uM is lower than 0.02, NOT MET for records at or above 0.02.

CC(C)c1ccc(OC(=O)c2cccc(S(=O)(=O)N3CCN(C)CC3)c2)cc1 [drawing 398] = MET
CCNC(=O)C(=O)Nc1cc2c3c(c1)CCN3C(=O)CC2 [drawing 482] = MET
CCc1c(C)sc(NC(=O)c2ccco2)c1C#N [drawing 320] = NOT MET

Ask: Given COc1ccc(C(=O)/C=C2\C(=O)Nc3ccccc32)cc1 [drawing 361] , is recorded Results in a α7+/− β-galactosidase assay, Myotubes, 1 uM strictly lower than 0.02?
Result: NOT MET

Ask: Given O=C(O)C(Cc1ccc(O)cc1)N1C(=O)c2ccccc2C1=O (centres unmarked) [drawing 411] , is recorded Results in a α7+/− β-galactosidase assay, Myotubes, 1 uM strictly lower than 0.02?
Result: NOT MET

Ask: Given O=C(NCc1ccccc1)C(c1c(F)cccc1Cl)N(C(=O)c1csnn1)C1CC1 (centres unmarked) [drawing 430] , is recorded Results in a α7+/− β-galactosidase assay, Myotubes, 1 uM strictly lower than 0.02?
Result: MET

Ask: Given Cc1ccccc1-n1c(S)nnc1Cc1cccs1 [drawing 312] , is recorded Results in a α7+/− β-galactosidase assay, Myotubes, 1 uM strictly lower than 0.02?
Result: NOT MET

Ask: Given COC(=O)c1ccccc1CC(=O)CSc1nc(O)c(-c2ccccc2)c(O)n1 [drawing 458] , is recorded Results in a α7+/− β-galactosidase assay, Myotubes, 1 uM strictly lower than 0.02?
Result: MET

---

test system: α7 integrin promoter; assay: muscle cell-based assay: α7βgal+/− myoblasts/myotubes, LacZ reporter, β-galactosidase cleavage of FDG; design: species or system mouse; scale not given here; details: Myotubes, 10 uM
assay.metric: Results in α7+/− β-galactosidase assay

CCN(CC)CCNC(=O)c1c(C)[nH]c(CC2C(=O)Nc3ccc(F)cc32)c1C (stereo not shown) [drawing 515] = −1.86
Cc1cc(C)c(/C=C2\C(=O)Nc3ccccc32)[nH]1 [drawing 510] = −0.3378
Cc1cc(C)c(/C=C2\C(=O)Nc3ccccc32)[nH]1 [drawing 513] = 1.02

Next:
Ask: Quick check: Results in α7+/− β-galactosidase assay of Cc1[nH]c(/C=C2\C(=O)Nc3ccc([S+](=O)([O-])Cc4c(Cl)cccc4Cl)cc32)c(C)c1C(=O)C1CCCN1CN1CCCC1 (stereo not shown) [drawing 517] ?
Result: −0.2838

---

system: α7 integrin promoter; assay: muscle cell-based assay: α7βgal+/− myoblasts/myotubes, LacZ reporter, β-galactosidase cleavage of FDG; design: species or system mouse; settings: Table 12; curve fit
Output YES for records whose Fit HillSlope is lower than 2, NO for records at or above 2.

Example cases with answers are listed next.
CCS(=O)(=O)N1CCCC(C(=O)c2ccc(OC)cc2C)C1 (stereo not drawn) [Compound 83] = NO
Cc1ccccc1C(=O)Nc1scc(-c2ccc(Br)cc2)c1C(=O)O [Compound 4] = YES
CCOc1ccc2oc(C(=O)OCC(=O)NC(=O)NC)c(C)c2c1 [Compound 115] = YES
Cc1ccc(OCC(=O)N2CCN(S(=O)(=O)c3ccc4c(c3)OCCO4)CC2)c(C)c1 [Compound 27] = NO
CC(OC(=O)c1cc(-c2cccnc2)nc2ccccc12)C(=O)Nc1ccc2ccccc2c1 (stereo not drawn) [Compound 1] = NO

Ask: Given CCOc1ccc2ccccc2c1C1NC(=O)N(C)C(C)=C1C(=O)OCCOC (stereo not drawn) [Compound 76] , is recorded Fit HillSlope strictly lower than 2?
Result: YES

---

tested on: α7 integrin promoter; experiment: muscle cell-based assay: α7βgal+/− myoblasts/myotubes, LacZ reporter, β-galactosidase cleavage of FDG; design: species or system mouse; conditions: Myotubes; compound at 5 uM
We use -0.3 as the dividing line for Results in a α7+/− β-galactosidase assay, Myotubes, 5 uM: on or above the line is Y, below is N.

NC(=O)c1sc2nc3c(cc2c1N)CCC3 [drawing 400] = Y
CCCC1C(c2cc(OC)c(OC)c(OC)c2)=Nc2c1c(=O)[nH]c(=O)n2Cc1ccccc1 (centres unmarked) [drawing 469] = N
CCCC(=O)OCC(=O)c1[nH]c(C)c(C(C)=O)c1C [drawing 496] = N
OC(c1nc2cc(F)ccc2[nH]1)C(O)c1nc2cc(F)ccc2[nH]1 (centres unmarked) [drawing 365] = Y

Ask: Reported Results in a α7+/− β-galactosidase assay, Myotubes, 5 uM reaches at least -0.3 for CCN(CC(=O)NCc1cccs1)C(=O)COc1ccc(C(N)=O)cc1 [drawing 354] ?
Result: Y

---

tested on: α7 integrin promoter; experiment: muscle cell-based assay: α7βgal+/− myoblasts/myotubes, LacZ reporter, β-galactosidase cleavage of FDG; design: species or system mouse; conditions: Myotubes; compound at 1 uM
assay.metric: Results in a α7+/− β-galactosidase assay, Myotubes, 1 uM

Illustrative cases are given below, each with its answer.
CCOc1cc2c3c(c1)C(C)=CC(C)(C)N3C(=O)C2=O [drawing 442] = 0.05498
COc1ccc(CN2CCNC(=O)C2CC(=O)NCCc2c[nH]c3ccccc23)c(OC)c1 (stereo not drawn) [drawing 484] = −0.1025
COc1cccc(CN2CCN(Cc3ccco3)CC2)c1.O=C(O)C(=O)O [drawing 322] = 0.2622
OC(c1nc2cc(F)ccc2[nH]1)C(O)c1nc2cc(F)ccc2[nH]1 (stereo not drawn) [drawing 365] = 0.1032
CCOn1c(=O)c(-c2ccccc2)[n+]([O-])c2ccccc21 [drawing 332] = 0.2794

Next:
Ask: Give recorded Results in a α7+/− β-galactosidase assay, Myotubes, 1 uM with α7 integrin promoter for the following compound: COc1ccc(C(=O)Nc2ccc(Cl)cn2)cc1Cl [drawing 498]
Result: −0.1102
